The values you see were collected from patent US20230265103A1.

Here's a batch of compounds along with measured pIC50 for PIKFYVE (Homo sapiens, UniProt Q9Y2I7).
pIC50: −log10 of the molar value.

>  <CPD SMILES>
Cc1cccc(-c2ccn(-c3nc(N4CCOCC4)c4nc(CN5CCC(N(C)C)CC5)[nH]c4n3)n2)c1

>  <pIC50>
> 9.00

$$$$
>  <CPD SMILES>
CS(=O)(=O)N1CCN(Cc2cc3nc(-n4ccc(-c5cccc(Br)c5)n4)nc(N4CCOCC4)c3s2)CC1

>  <pIC50>
8.00 to 9.00

$$$$
>  <CPD SMILES>
Cc1cccc(-c2ccn(-c3nc(N4CCCOCC4)c4sc(CN5CCN(S(C)(=O)=O)CC5)cc4n3)n2)c1

>  <pIC50>
7.00 to 8.00

$$$$
>  <CPD SMILES>
Cc1cccc(-c2ccn(-c3nc(N4CCOCC4)c4sc(CN5CCN(S(C)(=O)=O)CC5)c(C)c4n3)n2)c1

>  <pIC50>
> 9.00

$$$$
>  <CPD SMILES>
Cc1cccc(-c2ccn(-c3nc(N4CCOCC4)c4nc(CN5CCC(N(C)C)CC5)sc4n3)n2)c1

>  <pIC50>
> 9.00

$$$$
>  <CPD SMILES>
Cc1cccc(-c2ccn(-c3nc(N4CCOCC4)c4nc(CN5CCN(S(C)(=O)=O)CC5)n(C)c4n3)n2)c1

>  <pIC50>
8.00 to 9.00

$$$$

----------
Here's a batch of compounds along with measured IC50 for PIKFYVE (Homo sapiens).

>  <COMPOUND>
Cc1cccc(-c2ccn(-c3nc(N4CCOCC4)c4nc(CN5CCC(N6CCC6)C(F)C5)sc4n3)n2)c1 (stereo not shown) [Ex. 47]

>  <IC50>
< 1 nM

$$$$
>  <COMPOUND>
Cc1cccc(-c2ccn(-c3cc(N4CCOCC4)c4nc(CN5CC[C@@H](N(C)C)C5)[nH]c4n3)n2)c1 [Ex. 41]

>  <IC50>
< 1 nM

$$$$
>  <COMPOUND>
Cc1cccc(-c2ccn(-c3nc(N4CCOCC4)c4sc(-c5cnn(C)c5)cc4n3)n2)c1 [Ex. 37]

>  <IC50>
< 1 nM

$$$$
>  <COMPOUND>
Cc1cccc(-c2ccn(-c3cc(N4CCOCC4)c4nc(CN5CCN(S(C)(=O)=O)CC5)[nH]c4n3)n2)c1 [Ex. 27]

>  <IC50>
< 1 nM

$$$$
>  <COMPOUND>
Cc1cccc(-c2ccn(-c3nc(N4CCOCC4)c4sc(CN5CCC6(OCCO6)C(F)C5)cc4n3)n2)c1 (stereo not shown) [Ex. 50]

>  <IC50>
1 to 10 nM

$$$$
>  <COMPOUND>
Cc1cccc(-c2ccn(-c3nc(N4CCOCC4)c4sc(CN5CCC(N(C)C)C(F)C5)cc4n3)n2)c1 (stereo not shown) [Ex. 51]

>  <IC50>
< 1 nM

$$$$
>  <COMPOUND>
Cc1cccc(-c2ccn(-c3nc(N4CCOCC4)c4nc(CN5CCC(C(C)(C)O)CC5)[nH]c4n3)n2)c1 [Ex. 13]

>  <IC50>
1 to 10 nM

$$$$

----------
Catalogue of compounds with associated inhibition at 0.005 µM
- MEASUREMENT TARGET: PIKFYVE (Homo sapiens, UniProt Q9Y2I7)
- Construct: purchased Eurofins (KINOMEscan); host or cells: E. coli BL21-derived (T7 phage display) or HEK-293
- Sequence (Q9Y2I7 whole entry): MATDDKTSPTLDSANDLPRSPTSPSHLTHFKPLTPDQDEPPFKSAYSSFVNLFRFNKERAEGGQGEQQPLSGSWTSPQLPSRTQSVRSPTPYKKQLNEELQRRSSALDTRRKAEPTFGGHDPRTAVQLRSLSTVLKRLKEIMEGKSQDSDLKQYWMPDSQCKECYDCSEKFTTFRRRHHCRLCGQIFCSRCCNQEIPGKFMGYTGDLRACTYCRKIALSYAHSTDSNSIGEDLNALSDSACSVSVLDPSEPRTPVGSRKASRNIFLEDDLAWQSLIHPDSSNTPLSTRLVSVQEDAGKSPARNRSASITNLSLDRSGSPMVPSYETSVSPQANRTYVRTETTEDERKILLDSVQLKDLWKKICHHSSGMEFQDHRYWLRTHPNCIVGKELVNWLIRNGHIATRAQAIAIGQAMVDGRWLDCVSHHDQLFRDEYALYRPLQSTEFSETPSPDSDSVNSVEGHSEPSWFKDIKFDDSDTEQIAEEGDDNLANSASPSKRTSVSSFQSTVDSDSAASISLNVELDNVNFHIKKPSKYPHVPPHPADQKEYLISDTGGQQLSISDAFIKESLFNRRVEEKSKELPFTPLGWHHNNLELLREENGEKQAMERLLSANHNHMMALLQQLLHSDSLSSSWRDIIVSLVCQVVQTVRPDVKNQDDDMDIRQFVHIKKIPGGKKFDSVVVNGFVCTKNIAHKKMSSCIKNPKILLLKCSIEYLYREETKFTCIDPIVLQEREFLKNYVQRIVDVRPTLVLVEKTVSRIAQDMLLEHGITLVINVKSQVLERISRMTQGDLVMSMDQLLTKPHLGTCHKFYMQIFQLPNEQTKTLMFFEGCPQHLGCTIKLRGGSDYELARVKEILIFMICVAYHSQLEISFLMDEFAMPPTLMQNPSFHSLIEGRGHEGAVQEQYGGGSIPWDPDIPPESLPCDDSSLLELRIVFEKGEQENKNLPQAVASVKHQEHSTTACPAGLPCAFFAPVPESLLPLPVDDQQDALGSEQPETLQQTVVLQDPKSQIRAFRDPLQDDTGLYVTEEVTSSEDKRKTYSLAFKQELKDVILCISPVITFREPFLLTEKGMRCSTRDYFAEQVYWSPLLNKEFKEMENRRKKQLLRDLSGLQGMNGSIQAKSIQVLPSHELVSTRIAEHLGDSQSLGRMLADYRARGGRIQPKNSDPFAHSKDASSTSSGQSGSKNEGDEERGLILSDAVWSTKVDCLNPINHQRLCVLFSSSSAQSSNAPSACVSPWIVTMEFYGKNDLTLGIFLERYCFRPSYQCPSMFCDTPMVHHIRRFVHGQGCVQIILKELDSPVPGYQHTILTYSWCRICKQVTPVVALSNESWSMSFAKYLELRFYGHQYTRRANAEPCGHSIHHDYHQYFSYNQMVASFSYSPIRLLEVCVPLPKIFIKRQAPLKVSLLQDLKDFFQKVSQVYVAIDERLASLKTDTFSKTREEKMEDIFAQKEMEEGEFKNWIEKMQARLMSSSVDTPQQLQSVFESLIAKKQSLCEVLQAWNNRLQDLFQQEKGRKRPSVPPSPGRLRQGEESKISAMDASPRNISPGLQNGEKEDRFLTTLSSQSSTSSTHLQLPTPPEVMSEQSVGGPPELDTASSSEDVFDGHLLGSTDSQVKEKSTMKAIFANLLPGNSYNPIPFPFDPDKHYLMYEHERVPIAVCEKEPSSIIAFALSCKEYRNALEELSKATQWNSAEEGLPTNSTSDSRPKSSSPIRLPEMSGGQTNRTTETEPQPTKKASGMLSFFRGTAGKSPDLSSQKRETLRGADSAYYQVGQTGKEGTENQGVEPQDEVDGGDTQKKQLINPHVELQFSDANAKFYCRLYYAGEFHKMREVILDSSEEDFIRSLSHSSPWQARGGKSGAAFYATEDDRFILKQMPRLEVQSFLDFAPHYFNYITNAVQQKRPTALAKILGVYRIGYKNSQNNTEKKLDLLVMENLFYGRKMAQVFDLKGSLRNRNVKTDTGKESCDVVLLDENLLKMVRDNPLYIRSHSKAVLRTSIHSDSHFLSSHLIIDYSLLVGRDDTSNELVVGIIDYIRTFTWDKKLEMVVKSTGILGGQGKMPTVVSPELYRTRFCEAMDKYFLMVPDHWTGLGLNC
- METHOD NOTES: KINOMEscan Kinase Assay (Eurofins), PIKFYVE inhibitory activity
- Type: binding
- ASSAY CONDITIONS: @ 5 nM

>  <COMPOUND>
CC(=O)c1cccc(-c2ccn(-c3cc(N4CCOCC4)c4sc(CN5CCOCC5)cc4n3)n2)c1

>  <inhibition at 0.005 µM / %>
5

$$$$
>  <COMPOUND>
CO[C@@H](C)c1cccc(-c2ccn(-c3cc(N4CCOCC4)c4sc(CN5CCOCC5)cc4n3)n2)c1 (single isomer, unassigned)

>  <inhibition at 0.005 µM / %>
0

$$$$
>  <COMPOUND>
Cc1cc(-c2ccn(-c3cc(N4CCOCC4)c4sc(CN5CCOCC5)cc4n3)n2)ccn1

>  <inhibition at 0.005 µM / %>
5

$$$$
>  <COMPOUND>
Brc1ccn(-c2cc(N3CCOCC3)c3sc(CN4CCOCC4)cc3n2)n1

>  <inhibition at 0.005 µM / %>
8

$$$$
>  <COMPOUND>
CC(O)c1cccc(-c2ccn(-c3cc(N4CCOCC4)c4sc(CN5CCOCC5)cc4n3)n2)c1 (centres unmarked)

>  <inhibition at 0.005 µM / %>
22

$$$$
